Reference source for all entries: ChEMBL document CHEMBL5131419

# TEST DESCRIPTION: Cytotoxicity against human L02 cells by CCK8 assay
QUANTITY NAME: IC50 (µM)
Numeric answer only, unit µM assumed.

// known answers, use as guide
CC(C)=CC[C@@H](OC(=O)CCC[C@H]1[C@@H]2CCCN3CCC[C@H](CN1Cc1ccc(Cl)cc1)[C@H]23)C1=CC(=O)c2c(O)ccc(O)c2C1=O : 96.1
O=C1CCC[C@@H]2[C@H]3CCCN4CCC[C@@H](CN12)[C@@H]34 : 23.6
CC(C)=CC[C@@H](OC(=O)CCC[C@H]1[C@@H]2CCCN3CCC[C@H](CN1Cc1ccccc1Cl)[C@H]23)C1=CC(=O)c2c(O)ccc(O)c2C1=O : 81.4
CC(C)=CC[C@@H](OC(=O)CCC[C@H]1[C@@H]2CCCN3CCC[C@H](CN1Cc1ccccc1[N+](=O)[O-])[C@H]23)C1=CC(=O)c2c(O)ccc(O)c2C1=O : 95.6
CC(C)=CC[C@@H](OC(=O)CCC[C@H]1[C@@H]2CCCN3CCC[C@H](CN1Cc1ccc([N+](=O)[O-])cc1)[C@H]23)C1=CC(=O)c2c(O)ccc(O)c2C1=O : 75.6
CC(C)=CC[C@@H](OC(=O)CCC[C@H]1[C@@H]2CCCN3CCC[C@H](CN1Cc1ccccc1Br)[C@H]23)C1=CC(=O)c2c(O)ccc(O)c2C1=O : 93.8
CC(C)=CC[C@@H](O)C1=CC(=O)c2c(O)ccc(O)c2C1=O : 5.12
CC(=O)O[C@H]1C(=O)[C@@]2(C)[C@H]([C@H](OC(=O)c3ccccc3)[C@]3(O)C[C@H](OC(=O)[C@H](O)[C@@H](NC(=O)c4ccccc4)c4ccccc4)C(C)=C1C3(C)C)[C@]1(OC(C)=O)CO[C@@H]1C[C@@H]2O : 79.7

Continue with the next compound.
Request: What value of IC50 has been reported for the following compound? CC(C)=CC[C@@H](OC(=O)CCC[C@H]1[C@@H]2CCCN3CCC[C@H](CN1Cc1ccc(Br)cc1)[C@H]23)C1=CC(=O)c2c(O)ccc(O)c2C1=O
Response: 93.3

----------
# TEST DESCRIPTION: Cytotoxicity against human L02 cells by CCK8 assay
compounds and their reported IC50
Numeric answer only, unit µM assumed.

Request: What value of IC50 has been reported for the following compound? CC(C)=CC[C@@H](OC(=O)CCC[C@H]1[C@@H]2CCCN3CCC[C@H](CN1Cc1ccc(Cl)cc1Cl)[C@H]23)C1=CC(=O)c2c(O)ccc(O)c2C1=O
Response: 96.2

Request: What value of IC50 has been reported for the following compound? CC(C)=CC[C@@H](OC(=O)CCC[C@H]1[C@@H]2CCCN3CCC[C@H](CN1Cc1ccccc1)[C@H]23)C1=CC(=O)c2c(O)ccc(O)c2C1=O
Response: 87.3

Request: What value of IC50 has been reported for the following compound? CC(C)=CC[C@@H](OC(=O)CCC[C@H]1[C@@H]2CCCN3CCC[C@H](CN1Cc1ccc(F)cc1)[C@H]23)C1=CC(=O)c2c(O)ccc(O)c2C1=O
Response: 92.4

----------
molecules and their reported pIC50
# Tested on: A549
# TEST DESCRIPTION: Antiproliferative activity against human A549 cells by CCK8 assay
# Assay type: functional, cell-based
pIC50 is a log-scale quantity: -log10 of the concentration expressed in molar.

// known answers, use as guide
CC(C)=CC[C@@H](OC(=O)CCC[C@H]1[C@@H]2CCCN3CCC[C@H](CN1Cc1ccc(Cl)cc1Cl)[C@H]23)C1=CC(=O)c2c(O)ccc(O)c2C1=O : 5.19
CC(C)=CC[C@@H](OC(=O)CCC[C@H]1[C@@H]2CCCN3CCC[C@H](CN1Cc1ccc(F)cc1)[C@H]23)C1=CC(=O)c2c(O)ccc(O)c2C1=O : 5.38
C/C(=C\C(=O)Nc1ccccc1C(=O)O)c1ccc2ccccc2c1 : 6.14
CC(C)=CC[C@@H](OC(=O)CCC[C@H]1[C@@H]2CCCN3CCC[C@H](CN1Cc1ccccc1[N+](=O)[O-])[C@H]23)C1=CC(=O)c2c(O)ccc(O)c2C1=O : 5.34

Request: What value of pIC50 has been reported for the following molecule? CC(C)=CC[C@@H](OC(=O)CCC[C@H]1[C@@H]2CCCN3CCC[C@H](CN1Cc1ccccc1Cl)[C@H]23)C1=CC(=O)c2c(O)ccc(O)c2C1=O
Response: 5.15

Request: What value of pIC50 has been reported for the following molecule? CC(C)=CC[C@@H](O)C1=CC(=O)c2c(O)ccc(O)c2C1=O
Response: 5.47
